# Tested on: breast cancer (MCF-7)
# testName: Anticancer activity assay (WST-8 cell growth), MCF-7
# Type: cell-based
# testContext: MCF-7 cells, 4 day incubation, WST-8; read-out: IC50 (nM) MCF-7
measuredEndpoint: IC50
Answer by giving the amount and then stating its unit.

Prompt: System breast cancer (MCF-7). Read-out IC50. Item COc1cccc2c1C(=O)c1c(O)c3c(c(O)c1C2=O)C[C@@](O)(C(=O)CO)C[C@@H]3O[C@H]1C[C@H](N)[C@H](O)[C@H](C)O1 [Doxorubcin, reference compound] . Report value.
Response: 460 nM

---

# System: human epithelial cancer (A-431)
# testName: Anticancer activity assay (WST-8 cell growth), A-431
# Assay type: cell-based
# testContext: A-431, 96 h, read-out: IC50 (nM) A-431
measuredEndpoint: IC50 (nM)
Report only the number, with the unit nM understood.

Recorded IC50, per entry:
{"compound": "CC[C@H](C)[C@@H]([C@@H](CC(=O)N1C[C@H](OC)C[C@@H]1[C@H](OC)[C@@H](C)C(=O)NCCc1ccc(F)cc1)OC)N(C)C(=O)[C@@H](NC(=O)[C@@H](NC)C(C)C)C(C)C", "IC50 (nM)": 37.9}
{"compound": "CC[C@H](C)[C@@H]([C@@H](CC(=O)N1C[C@H](OC)CC1[C@H](OC)[C@@H](C)C(=O)NCCc1cc(F)c(Cl)cc1Cl)OC)N(C)C(=O)[C@@H](NC(=O)[C@@H](NC)C(C)C)C(C)C (stereo partly drawn)", "IC50 (nM)": 21.1}

Prompt: Report IC50, nothing else, for this compound: CC[C@H](C)[C@@H]([C@@H](CC(=O)N1C[C@H](OC)C[C@H]1[C@H](OC)[C@@H](C)C(=O)NCC(=O)c1ccc(OC)cc1)OC)N(C)C(=O)[C@@H](NC(=O)[C@@H](NC)C(C)C)C(C)C (stereo in doubt)
Response: 61.2

Each recorded value in this set is attributed to patent US9278996B2.
